Known MIC of a selection of molecules
system: Escherichia coli; assay: Antibacterial activity against Escherichia coli ATCC 25922 assessed as reduction in bacterial growth incubated 16 to 20 hrs by CLSI-based broth microdilution method; assay type: functional; conditions: time 16-20 hrs
Property: MIC

>>> value_measured("CCCCCCCN(C[C@H]1CN(c2ccc(N3CCOCC3)c(F)c2)C(=O)O1)C(=O)[C@@H](N)CCCCN.Cl.Cl")
"> 128 µg/mL"
>>> value_measured("CC(=O)NC[C@H]1CN(c2ccc(N3CCOCC3)c(F)c2)C(=O)O1")
"> 64 µg/mL"
>>> value_measured("CCCCCCCCN(C[C@H]1CN(c2ccc(N3CCOCC3)c(F)c2)C(=O)O1)C(=O)[C@@H](N)CCCN=C(N)N.Cl.Cl.Cl")
"> 128 µg/mL"

----------
Known MIC of a selection of compounds
test system: Klebsiella pneumoniae; assay: Antibacterial activity against carbapenem-resistant Klebsiella pneumoniae clinical isolate 7 assessed as reduction in bacterial growth incubated for 16 to 20 hrs by CLSI-based broth microdilution method; format: functional; conditions: time 16-20 hrs
Property: MIC

>>> value_measured("CN[C@H](CC(C)C)C(=O)N[C@H]1C(=O)N[C@@H](CC(N)=O)C(=O)N[C@H]2C(=O)N[C@H]3C(=O)N[C@H](C(=O)N[C@H](C(=O)O)c4cc(O)cc(O)c4-c4cc3ccc4O)[C@H](O)c3ccc(c(Cl)c3)Oc3cc2cc(c3O[C@@H]2O[C@H](CO)[C@@H](O)[C@H](O)[C@H]2O[C@H]2C[C@](C)(N)[C@H](O)[C@H](C)O2)Oc2ccc(cc2Cl)[C@H]1O")
"> 64 µg/mL"
>>> value_measured("CC(=O)NC[C@H]1CN(c2ccc(N3CCOCC3)c(F)c2)C(=O)O1")
"> 64 µg/mL"
>>> value_measured("C[C@@H](O)[C@H]1C(=O)N2C(C(=O)O)=C(S[C@@H]3CN[C@H](C(=O)N(C)C)C3)[C@H](C)[C@H]12")
"> 64 µg/mL"

----------
tested on: Klebsiella pneumoniae; assay: Antibacterial activity against carbapenem-resistant Klebsiella pneumoniae clinical isolate 1 assessed as reduction in bacterial growth incubated for 16 to 20 hrs by CLSI-based broth microdilution method; format: functional; conditions: time 16-20 hrs
Known MIC of a selection of compounds
Property: MIC

>>> value_measured("C[C@@H](O)[C@H]1C(=O)N2C(C(=O)O)=C(S[C@@H]3CN[C@H](C(=O)N(C)C)C3)[C@H](C)[C@H]12")
"> 64 µg/mL"
>>> value_measured("CC(=O)NC[C@H]1CN(c2ccc(N3CCOCC3)c(F)c2)C(=O)O1")
"> 64 µg/mL"
>>> value_measured("CN[C@H](CC(C)C)C(=O)N[C@H]1C(=O)N[C@@H](CC(N)=O)C(=O)N[C@H]2C(=O)N[C@H]3C(=O)N[C@H](C(=O)N[C@H](C(=O)O)c4cc(O)cc(O)c4-c4cc3ccc4O)[C@H](O)c3ccc(c(Cl)c3)Oc3cc2cc(c3O[C@@H]2O[C@H](CO)[C@@H](O)[C@H](O)[C@H]2O[C@H]2C[C@](C)(N)[C@H](O)[C@H](C)O2)Oc2ccc(cc2Cl)[C@H]1O")
"> 64 µg/mL"

----------
Known MIC of a selection of compounds
tested on: Escherichia coli; assay: Antibacterial activity against Escherichia coli ATCC 25922 assessed as reduction in bacterial growth incubated 16 to 20 hrs by CLSI-based broth microdilution method; format: functional; conditions: time 16-20 hrs
Property: MIC

>>> value_measured("C[C@@H](O)[C@H]1C(=O)N2C(C(=O)O)=C(S[C@@H]3CN[C@H](C(=O)N(C)C)C3)[C@H](C)[C@H]12")
"< 0.125 µg/mL"
>>> value_measured("CCCCCCCCCCCCCCCCCC[N+](C)(C)CC(=O)NC[C@H]1CN(c2ccc(N3CCOCC3)c(F)c2)C(=O)O1.[Cl-]")
"> 128 µg/mL"
>>> value_measured("NC[C@H]1CN(c2ccc(N3CCOCC3)c(F)c2)C(=O)O1")
"> 128 µg/mL"

The reported numbers originate from ChEMBL document CHEMBL4673214.
